- Tested on: p38-gamma
- Construct: gene MAPK12
- condition info: concentration: 1 μM, replicates: in singlicate; n = 1;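 also: KINOMEscan kinase panel screen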
So I've got a bunch of molecules here, and I need their %Inh values.
Write the value in % as a bare number.

# %Inh lookup, item Fc1cc(Cl)ccc1Nc1ccnc2cc(I)ccc12
1

Try COc1cc2ncnc(Nc3ccc4nc(-c5ccccc5)[nH]c4c3)c2cc1OC.Cl next.
0

Try Clc1cc(Cl)cc(Nc2ccnc(Nc3cc(Cl)cc(Cl)c3)n2)c1 next.
40

Try Cl.NC(=O)c1cccc(Nc2nccc(Nc3ccc(Oc4cccc(Cl)c4)c(Cl)c3)n2)c1 next.
0

Try O=C(O)COc1ncnc2cc(-c3ccc4[nH]ncc4c3)sc12 next.
21

Try CC(C)(C)c1ccc(C(=O)Nc2cn3cc(-c4cccnc4)ccc3n2)cc1 next.
21

Try Cc1ccc(NC(=O)Nc2cc(C(C)(C)C)nn2-c2ccccc2)cc1 next.
50

Try O=C1NC(=O)C(N2CCc3ccccc32)=C1c1ccccc1Cl next.
18

Try COc1ccc(C2=C(Nc3cccc(C(=O)O)c3)C(=O)NC2=O)cc1 next.
29

Try CC(C)(C)c1ccc(C(=O)Nc2cn3cc(Cl)ccc3n2)cc1 next.
10

Try CS(=O)(=O)c1ccc(-c2nc3n(c2-c2ccncc2)CCC3)cc1 next.
14

Try Cc1cc(-c2ccc3c(c2)CC[C@@H](N[C@@H](C)c2ccccc2)C3)cnc1N.Cl next.
0

Try COc1cccc(NC(=O)NC2CCN(c3ccnc(Nc4ccc(F)cc4)n3)C2)c1 (centres unmarked) next.
2

Try O=C(Nc1n[nH]c2nc(-c3nccs3)c(Br)cc12)C1CC1 next.
0

----------
- Tested on: NEK7
- condition info: concentration: 1 μM, replicates: in singlicate; n = 1
So I've got a bunch of molecules here, and I need their %Inh values.
Write the value in % as a bare number.

# %Inh lookup, item O=c1cc(N2CCOCC2)nc2n(Cc3cccc(Cl)c3Cl)ccn12 [GSK2286295]
0

Try NC(=O)c1nnc2ccccc2c1N next.
0

Try CC(C)(C)c1ccc(C(=O)Nc2cn3cc(-c4cccnc4)ccc3n2)cc1 next.
4

Try Nc1ncnc2[nH]c(-c3ccccc3)nc12 [AH5015] next.
7

Try C[C@@H]1CCCCN1c1cc(-c2ccc3c(N)n[nH]c3c2)nc(N)n1 [GSK2258759] next.
0

Try CCn1c(-c2cccnc2O)nc2cnccc21 [SB-736715] next.
0

Try Cc1ccc(C(=O)Nc2ccc(Nc3ccnc4cc(-c5ccccn5)ccc34)cc2O)cc1.Cl [GW440146] next.
0

Try COc1ccc(CNC(=O)NC2CCN(c3ccnc(Nc4cc(OC)c(OC)c(OC)c4)n3)C2)cc1 (centres unmarked) [GSK1379748] next.
15

----------
So I've got a bunch of molecules here, and I need their %Inh values.
- Tested on: MYLK2
- condition info: concentration: 1 μM, replicates: in singlicate; n = 1
Write the value in % as a bare number.

# %Inh lookup, item CC(=O)Nc1nc2cnc(Nc3cc(NC(=O)c4cccc(CCC#N)c4)ccc3C)nc2s1
0

Try CC(C)(C)c1ccc(C(=O)Nc2cn3cc(-c4cccnc4)ccc3n2)cc1 next.
53

Try Cc1cccc(-c2nc(Nc3cccc(C(N)=O)c3)c3ccccc3n2)n1 next.
0

Try Cc1cccc(-c2cc(Nc3ccncc3)c3ccccc3n2)n1 next.
0

Try COc1ccccc1-c1ccc2c(NC(=O)C3CC3)n[nH]c2n1 next.
23

Try Cn1ccc2ncnc(Oc3cccc(C(=O)Nc4ccccc4)c3)c21 next.
0
